- Test system: Brassica rapa subsp. chinensis
- Assay summary: whole plant or invertebrate
- Assay type: functional
- Condition details: 72 h, read-out: GI
- Description: Phytotoxicity against Brassica rapa subsp. chinensis assessed as growth inhibition of radicle at 100 ppm treated to seeds after 3 days
inhibition of growth at 100 ppm values, listed per item
# number only, unit % dropped from output

Sample answers from the record:
- Cc1cccc(NC(=O)/C=C/c2ccccc2)c1C: 56
- CCCCCCCCCCNC(=O)/C=C/c1ccccc1: 15
- CCCCCCNC(=O)/C=C/c1ccccc1 [N-HEXYLCINNAMAMIDE]: 82
- CCCOC(=O)/C=C/c1ccc(Cl)cc1Cl [PROPYL 3-(2,4-DICHLOROPHENYL)ACRYLATE]: 79
- CCC(C)NC(=O)/C=C/c1ccc(Cl)cc1 (centres undefined) [N-SEC-BUTYL-3-(4-CHLOROPHENYL)ACRYLAMIDE]: 61
- CC(C)CNC(=O)/C=C/c1ccc(Cl)cc1 [3-(4-CHLOROPHENYL)-N-ISOBUTYLACRYLAMIDE]: 69
- C=CCNC(=O)/C=C/c1ccccc1: 64
- CCCCCOC(=O)/C=C/c1ccc(Cl)cc1 [PENTYL 3-(4-CHLOROPHENYL)ACRYLATE]: 22

# evaluate next
The compound identified as CC(C)NC(=O)/C=C/c1ccc(Cl)cc1 [3-(4-CHLOROPHENYL)-N-ISOPROPYLACRYLAMIDE] registered its inhibition of growth at 100 ppm at 57
